System: velvetleaf (Abutilon theophrasti)
Experiment: Test G Pre-Emergence Protocol
Assay type: in vivo
Conditions: Abutilon theophrasti, pre-emergence, 312 h, 250 g ai/ha, evaluated after 13 days, read-out: Velvetleaf damage rating (100=total damage to plant; 0=no damage to plant)
Answer each item with its documented pest or weed control at 250 g/ha.
One number for each entry, in %.

Examples from the recorded data:
CN1C[C@@H](c2ccc(C(F)(F)F)cc2)[C@H](C(=O)Nc2ccn(C)n2)C1=O (racemic) = 0
CN1C[C@H](c2ccc(C(F)(F)F)cc2)[C@@H](C(=O)Nc2ccccc2C(C)(C)C)C1=O (racemic) = 0
CN1C[C@@H](c2cnc(Cl)c(Cl)c2)[C@H](C(=O)Nc2cccc(F)c2F)C1=O (racemic) = 30
CN1C[C@@H](c2ccc(C(F)(F)F)cc2)[C@H](C(=O)Nc2ccccc2)C1=O (racemic) = 0

Fill in pest or weed control at 250 g/ha for each of the 3 compounds listed.
1. CN1C[C@H](c2ccc(C(F)(F)F)cc2)[C@@H](C(=O)Nc2cnccc2C#N)C1=O (racemic)
2. Cc1cc(C#N)cc(C2CN(C)C(=O)C2C(=O)Nc2cccc(F)c2F)c1 (stereo not shown)
3. CN1C[C@@H](c2ccc(C(F)(F)F)cc2)[C@H](C(=O)Nc2nccs2)C1=O (racemic)

Output line:
0
60
0

====

Test system: lambsquarters (Chenopodium album)
Assay: Test C preemergence
Type: in vivo
Settings: 62 g ai/ha, scale 0 to 100, 0 no effect, 100 complete control
REPORTED_METRIC: Plant response rating, Lambsquarters

# example entries with known answers
CN1CC(c2cccc(OC(F)(F)C(F)F)c2)C(C(=O)Nc2ccc(F)c(F)c2F)C1=O (stereo not drawn) = 75
CN1CC(c2ccc(F)c(F)c2)C(C(=O)Nc2ccccc2C(F)(F)F)C1=O (stereo not drawn) = 40
O=C1NCC(c2ccc(I)cc2)C1C(=O)Nc1cccc(F)c1F (racemic) = 25
O=C1NCC(c2cccc(OC(F)(F)C(F)F)c2)C1C(=O)Nc1ccc(F)c(F)c1F (racemic) = 35
CN1C[C@H](c2ccc(C(F)(F)F)cc2)[C@@H](C(=O)Nc2cccc(F)c2F)C1=O = 50

Read the next record carefully.
Input line: Entry under review: CN1CC(c2ccc(C(C)(F)F)cc2)C(C(=O)Nc2cccc(F)c2F)C1=O (stereo not drawn) . Reported Plant response rating, Lambsquarters?
Output line: 85

====

What Plant response rating, Wheat was measured for each of the following?
System: wheat (Triticum aestivum)
Test: Test A postemergence
Type: in vivo
Conditions: 500 g ai/ha, postemergence; 0 to 100 scale, 0 no effect, 100 complete control

CC(=O)Oc1cccc(C2CNC(=O)C2C(=O)Nc2cccc(F)c2F)c1 (centres unmarked) = 0
COc1cccc(NC(=O)C2C(=O)NCC2c2ccc(F)c(F)c2)c1F (centres unmarked) = 0
O=C1NCC(c2cccc(OC(F)F)c2)C1C(=O)Nc1ccccc1OC(F)F (centres unmarked) = 20

Consider the following items and state reported Plant response rating, Wheat for each.
1. Cc1cc(C2CN(C)C(=O)C2C(=O)Nc2ccccc2C(F)(F)F)ccc1F (centres unmarked)
2. CN1CC(c2ccc(F)cc2)C(C(=O)Nc2ccccc2S(C)(=O)=O)C1=O (centres unmarked)

Output line:
1. 70
2. 40

====

Exercise: for every item that follows, state its recorded pest or weed control at 31 g/ha.
Test system: Galium (catchweed bedstraw, Galium aparine)
Test: Test A postemergence
Assay type: in vivo
Conditions: Galium, post-emergence, 240 h, Postemergence, 31 g ai/ha; 0 is no effect, 100 is complete control; read-out: Galium plant response rating (0 to 100 scale)

Consider the worked cases shown below.
CN1C[C@H](c2ccc(C(F)(F)F)cc2)[C@@H](C(=O)Nc2ccc(F)nc2F)C1=O = 70%
CN1C[C@H](c2ccc(C#N)c(F)c2)[C@@H](C(=O)Nc2cccc(F)c2F)C1=O = 0%

Look up pest or weed control at 31 g/ha for the entries below, preserving their order.
1. COc1c([C@H]2CN(C)C(=O)[C@@H]2C(=O)Nc2ccccc2F)cccc1C(F)(F)F
2. Cc1cc([C@H]2CN(C)C(=O)[C@@H]2C(=O)Nc2cccc(F)c2F)no1

Output line:
0%
0%

====

Test system: wheat (Triticum aestivum)
Assay: Test A postemergence
Format: in vivo
Settings: Triticum aestivum, post-emergence, 240 h, 125 g ai/ha, postemergence; visual injury after approximately 10 d; 0 to 100 scale (0 no effect, 100 complete control); read-out: Plant response rating, Wheat
From the text: […]
REPORTED_METRIC: plant injury at 125 g/ha (%)
One number for each entry, in %.

// known answers, use as guide
CN1C[C@H](c2cccc(S(C)(=O)=O)c2)[C@@H](C(=O)Nc2cccc(F)c2F)C1=O (racemic) = 30
O=C1NC[C@H](c2ccc3c(c2)CCO3)[C@H]1C(=O)Nc1ccccc1F = 0
COc1cc([C@H]2CN(C)C(=O)[C@@H]2C(=O)Nc2ccccc2SC)ccc1C(F)(F)F = 0
CN1C[C@H](c2nccs2)[C@@H](C(=O)Nc2ccccc2F)C1=O = 0

// for each compound in input: emit plant injury at 125 g/ha
1. CCc1cc(CC)cc([C@H]2CN(C)C(=O)[C@@H]2C(=O)Nc2ccccc2F)c1
2. Cc1ccc([C@H]2CNC(=S)[C@@H]2C(=O)Nc2cccc(F)c2F)cc1C
3. COc1ccc([C@H]2CNC(=O)[C@@H]2C(=O)Nc2ccccc2S(C)(=O)=O)cc1F

Output line:
50
0
0

====

System: wheat (Triticum aestivum)
Experiment: Test A postemergence
Type: in vivo
Conditions: Triticum aestivum, post-emergence, 240 h, 500 g ai/ha, postemergence; 0 to 100 scale, 0 is no effect, 100 is complete control; read-out: Wheat plant response rating
REPORTED_METRIC: plant injury at 500 g/ha (%)
Give bare numbers, in %.

Reference set (3 entries):
O=C1NC[C@H](c2nccs2)[C@H]1C(=O)Nc1ccccc1F [Compound 1181] = 0
Cc1c(F)cccc1NC(=O)[C@H]1C(=O)N(C)C[C@@H]1c1cc(F)cc(F)c1 [Compound 1140] = 70
O=C1NC[C@H](c2csc(C(F)F)c2)[C@H]1C(=O)Nc1cccc(F)c1F [Compound 1119] = 50

Input line: May I ask what plant injury at 500 g/ha has been recorded for CC(C)=CC1CNC(=O)C1C(=O)Nc1ccccc1S(C)(=O)=O (stereo not shown) [Compound 1057] ?
Output line: 0

====

Give pest or weed control at 125 g/ha for every item shown.
Tested on: Kochia (Kochia scoparia)
Experiment: Test A postemergence
Format: in vivo
Conditions: Bassia scoparia, post-emergence, 240 h, 125 g ai/ha, postemergence; visual injury on 0 to 100 scale (0 no effect, 100 complete control), approx. 10 d; read-out: Kochia plant response rating
Numbers only, in %.

Consider the worked cases shown below.
O=C(Nc1ccccc1F)[C@H]1C(=S)NC[C@@H]1c1ccc(C(F)(F)F)cc1 (racemic) [Compound 1047] = 0
CN1C[C@H](c2ccc(C(F)(F)F)cc2)[C@@](F)(C(=O)Nc2cccc(F)c2F)C1=O (racemic) [Compound 1151] = 30
O=C1NC[C@H](c2csc(C(F)F)c2)[C@H]1C(=O)Nc1ccccc1F [Compound 1118] = 0
CN1CC(c2ccccc2OC(F)(F)C(F)F)C(C(=O)Nc2cccc(F)c2F)C1=O (centres unmarked) [Compound 1056] = 0
Cc1cc([C@H]2CNC(=O)[C@@H]2C(=O)Nc2ccc(F)cc2F)ccc1C(F)(F)F [Compound 1043] = 0

For each of the compounds below, note its pest or weed control at 125 g/ha.
1. CN1C[C@H](c2csc3c2CCCC3)[C@@H](C(=O)Nc2ccccc2S(C)(=O)=O)C1=O [Compound 1080]
2. CN1C[C@H](c2ccc(F)c(Oc3ccccc3)c2)[C@@H](C(=O)Nc2ccccc2F)C1=O [Compound 1141]
3. CC(C)COc1cccc([C@H]2CN(C)C(=O)[C@@H]2C(=O)Nc2ccccc2F)c1 [Compound 1028]
4. CCc1cc(CC)cc([C@H]2CNC(=O)[C@@H]2C(=O)Nc2cccc(F)c2F)c1 [Compound 1139]
5. CN1C[C@H](c2csc3ccccc23)[C@@H](C(=O)Nc2ccccc2F)C1=O [Compound 1114]

Output line:
[0, 30, 0, 0, 0]

Input line: Looking for the measured pest or weed control at 125 g/ha of CC(C)Oc1cc([C@H]2CN(C)C(=O)[C@@H]2C(=O)Nc2cccc(F)c2F)ccc1F [Compound 1075] , can you help?
Output line: 30

====

System: pigweed (Amaranthus retroflexus)
Experiment: Test A preemergence
Assay type: in vivo
Details: Amaranthus retroflexus, pre-emergence, 240 h, 125 g ai/ha, preemergence; visual injury rating, 0 to 100 scale where 0 is no effect and 100 is complete control; approximately 10 d; read-out: Pigweed plant response rating
REPORTED_METRIC: pest or weed control at 125 g/ha (%)
Give bare numbers, in %.

The following compounds have reported results that may help.
CSc1ccccc1NC(=O)[C@H]1C(=O)N(C)C[C@@H]1c1ccc(F)cc1 = 60
Cc1cc([C@H]2CN(C)C(=O)[C@@H]2C(=O)Nc2ccccc2F)on1 = 0
Cc1c(F)cccc1NC(=O)[C@H]1C(=O)N(C)C[C@@H]1c1ccc2c(c1)C(F)(F)C(F)(F)O2 = 0

For each listed entry, give its pest or weed control at 125 g/ha.
1. CSc1ccccc1NC(=O)[C@H]1C(=O)N(C)C[C@@H]1c1ccc(OC(F)F)cc1
2. Cc1ccc([C@H]2CCN(C)C(=O)[C@@H]2C(=O)Nc2ccc(F)c(F)c2F)cc1
3. CSc1ccccc1NC(=O)[C@H]1C(=O)N(C)CC[C@@H]1c1ccc(C)cc1
4. Cn1ccc2ccc([C@H]3CNC(=O)[C@@H]3C(=O)Nc3ccccc3F)cc21

Output line:
1. 80
2. 0
3. 0
4. 0

Required: pest or weed control at 125 g/ha, one value per compound below.
1. CSc1ccccc1NC(=O)[C@H]1C(=O)N(C)CC[C@@H]1c1ccc(C(F)(F)F)cc1
2. CN1C[C@H](c2csc3c2CCCC3)[C@@H](C(=O)Nc2cccc(F)c2F)C1=O

Output line:
1: 30; 2: 30

Where do the numbers come from? From patent US12077503B2.
